molecular target: BoNT/B2 (Clostridium botulinum); experiment: KinExA flow fluorimetry, IgG in solution
Observed Property: Kd (nM)
# output: bare number, implied unit nM

Study these solved cases before continuing.
B12.1 IgG (antibody, V domains shown) VH: QVNLRESGGGVVQPGRSLRLSCAASGFTFSSYALHWVRQTPGKGLEWVALISYDGSNKYYADSVKGRFTISRDNSKNMLYLQMNSLRAEDTAVYYCAKDRSHYGDYVGYLDYWGQGTLVTVSS VL: AYVLTQPPSVSVAPGKTAAITCEGNNVGNKNVHWYQQRPGQAPVLVVHDDSDRPSGIPERFSGSNSGNTATLTINRVEAGDEADYYCQVWDSSSAQWVFGGGTKLTVLG    0.0162
1B10.1 IgG (antibody, V domains shown) VH: QVQLVESGGGVVQPGRSLRLSCAASGFTFSHYGMHWVRQSPGKGLEWVAVIWYDGRNPYYAASVKGRFTISRDNDKNTLYLQMNSLRAEDTAVYYCVKDLTRFHDTTFGVFEMWGPGTTVTVSS VL: EIVLTQSPSFVSASVGDRVTITCRASQGISSWLAWYQQKPGKAPKLLIYAASSLQSGVPSRFSGSGSGTEFTLTISSLQPDDFATYYCQQYSSLYTFGQGTKVDIKR    0.00031

Then this binder:
[Q] Give the measured Kd of 2B25.1 IgG (antibody, V domains shown) VH: QVQLQESGPGLVKPSQTLSLSCSVSGASITSGTFYWSWIRQHPGKDLEWIGYIYYSGTTYYNPSLKSRVTLSVDTSKNQFSLKVTSLTAADTAVYHCARGVPIYDSSGTYRGTYFDYWGQGTLVTVSS VL: ESVLTQPPSVSAAPGQKVTISCSGSSSNIGNNYVSWYQQLPGTAPKLLIYDNNRRPSGIPDRFSGSKSGTSATLGITGLQTGDEADYYCGTWDSSLSEVVFGGGTKVTVLG .
[A] 0.0532
